Experiment: Aqueous solubility of the compound in water at pH 7.4 after 24 hrs
Type: physicochemical
Settings: water, pH 7.4
Measurement kind: solubility at 24 h (µM)
Report as a plain number; the unit µM is understood.

Using the record for `CCCN1CNc2cc(Nc3ccnc4cc(Cl)ccc34)ccc2C1` , report its solubility at 24 h.
53

----------
Biological target: Chloroquine resistance transporter (Plasmodium falciparum)
Sequence (Q9N623 whole entry): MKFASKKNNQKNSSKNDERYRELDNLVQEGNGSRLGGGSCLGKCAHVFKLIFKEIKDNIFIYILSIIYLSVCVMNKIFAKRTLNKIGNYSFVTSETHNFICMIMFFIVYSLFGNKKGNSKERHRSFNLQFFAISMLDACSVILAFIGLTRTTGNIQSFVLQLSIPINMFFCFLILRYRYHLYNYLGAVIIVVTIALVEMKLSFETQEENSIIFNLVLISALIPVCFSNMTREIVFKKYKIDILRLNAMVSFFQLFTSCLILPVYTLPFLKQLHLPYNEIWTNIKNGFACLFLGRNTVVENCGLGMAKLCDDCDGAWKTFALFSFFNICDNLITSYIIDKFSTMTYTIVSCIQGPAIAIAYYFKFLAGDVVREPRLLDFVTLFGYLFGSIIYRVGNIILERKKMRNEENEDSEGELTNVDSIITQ
Assay: Inhibition of chloroquine-resistant Plasmodium falciparum Dd2 CRT expressed in Xenopus laevis oocytes assessed as reduction in [3H]-chloroquine uptake after 1.5 to 2 hrs
Measurement kind: pIC50
Give only the number. pIC50 is defined as minus log10 of concentration in molar units.

Using the record for `CC(C)(C)NC(=O)[C@@H]1C[C@@H]2CCCC[C@@H]2CN1C[C@@H](O)[C@H](Cc1ccccc1)NC(=O)[C@H](CC(N)=O)NC(=O)c1ccc2ccccc2n1` , report its pIC50.
4.89

Let us now turn to `Clc1ccc2c(Nc3ccc4c(c3)NCN(Cc3ccccc3)C4)ccnc2c1`
3.64

----------
System: Plasmodium falciparum
Assay: Antiplasmodial activity against chloroquine-resistant Plasmodium falciparum W2 infected in human RBCs after 72 hrs by parasite lactate dehydrogenase assay
Assay type: functional, organism-based
Details: W2, 72 h
Measurement kind: pIC50
Give only the number. pIC50 is defined as minus log10 of concentration in molar units.

Using the record for `CCCN1CNc2cc(Nc3ccnc4cc(Cl)ccc34)ccc2C1` , report its pIC50.
7.28

Let us now turn to `O=c1c2ccc(Nc3ccnc4cc(Cl)ccc34)cc2ncn1Cc1ccc(CN2CCCC2)cc1`
7.08

Let us now turn to `CCN1COc2cc(Nc3ccnc4cc(Cl)ccc34)ccc2C1`
7.14

Let us now turn to `CCN(CC)Cc1cc(Nc2ccnc3cc(Cl)ccc23)ccc1O.Cl`
7.72

Let us now turn to `CCN1CNc2cc(Nc3ccnc4cc(Cl)ccc34)ccc2C1`
7.22

Let us now turn to `Clc1ccc2c(Nc3ccc4c(c3)OCN(Cc3ccccc3)C4)ccnc2c1`
7.51

Let us now turn to `Clc1ccc2c(Nc3ccc4c(c3)NCN(Cc3ccccc3)C4)ccnc2c1`
7.17

Let us now turn to `CCN(CC)Cc1ccc(Nc2ccnc3cc(Cl)ccc23)cc1O`
7.51

Let us now turn to `CCCN1COc2cc(Nc3ccnc4cc(Cl)ccc34)ccc2C1`
7.40

----------
Assay: Cytotoxicity against human HepG2 cells assessed as cell viability after 24 hrs by neutral red uptake assay
Assay type: cell-based
Conditions: read-out: TC50
Measurement kind: CC50 at 24 h (µM)
Report as a plain number; the unit µM is understood.

Using the record for `CCCN1CNc2cc(Nc3ccnc4cc(Cl)ccc34)ccc2C1` , report its CC50 at 24 h.
5.7

Let us now turn to `CCN1COc2cc(Nc3ccnc4cc(Cl)ccc34)ccc2C1`
6

Let us now turn to `Clc1ccc2c(Nc3ccc4c(c3)NCN(Cc3ccccc3)C4)ccnc2c1`
25

Let us now turn to `Clc1ccc2c(Nc3ccc4c(c3)OCN(Cc3ccccc3)C4)ccnc2c1`
15

Let us now turn to CCN(CC)CCCC(C)Nc1ccnc2cc(Cl)ccc12 (stereo not given)
31

----------
Assay: Cytotoxicity against mouse NIH/3T3 cells assessed as cell viability after 24 hrs by neutral red uptake assay
Type: cell-based, NIH3T3
Settings: read-out: TC50
Measurement kind: CC50 at 24 h (µM)
Report as a plain number; the unit µM is understood.

Using the record for `CCN1COc2cc(Nc3ccnc4cc(Cl)ccc34)ccc2C1` , report its CC50 at 24 h.
29

Let us now turn to `Clc1ccc2c(Nc3ccc4c(c3)OCN(Cc3ccccc3)C4)ccnc2c1`
40

Let us now turn to `Clc1ccc2c(Nc3ccc4c(c3)NCN(Cc3ccccc3)C4)ccnc2c1`
40

Let us now turn to `CCCN1CNc2cc(Nc3ccnc4cc(Cl)ccc34)ccc2C1`
17
